target-desc: Troponin I, cardiac muscle (Homo sapiens) + Troponin T, cardiac muscle (Homo sapiens) + Troponin C, slow skeletal and cardiac muscles (Homo sapiens) (UniProt P19429+P45379+P63316)
assay-summary: cardiac RTF calcium sensitivity activators, confirmation, biochemical, IANBD-TnC fluorescence, triplicate (AID 504383)
stated-conditions: IANBD-labeled cardiac RTF, Ca2+ sensitivity fluorescence; at 7.2 µM; scaled from EC20 to saturating calcium; tested at EC20 calcium, 0.472 mM
Out of some 2,500 compounds screened, about 1,200 (48%) were called active.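 How the source made its calls: active means mean activation above the low control average plus 3 SD, as set in the primary screen (cut at about 12% in these data); inactive means the rest.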 The set was probably picked from earlier hits. This is one part of the list.
The reply should be one of these categories: active, inactive

O=c1[nH]c2ccccc2nc1/C=C(\O)c1cccs1 | inactive
O=C(CSc1ccc(Cl)cc1)Nc1cccc(NC(=O)c2ccco2)c1 | inactive
CCN(CC)c1ccc(/C=C/c2cccc[n+]2C)c(OC)c1 | active

Please indicate how the test categorized `O=C(O)c1cc(NCc2ccc(F)cc2)ccc1N1CCOCC1` .
active

Tell me the assay call for `O=c1[nH]c2ccccc2nc1/C=C/c1ccc(F)cc1` please.
inactive

Call for entry `COc1ccc(Cn2nnc3ccccc32)cc1` :
inactive

Which outcome did this test record for the compound `CN(CC(=O)N1CCN(c2ncccn2)CC1)S(=O)(=O)c1ccc(Cl)cc1` ?
inactive

Please state the recorded outcome for this compound: `Cc1cc2nc(/C(C#N)=C\c3ccc(-c4ccccc4C(=O)O)o3)[nH]c2cc1C`
active

* * *

target-desc: Troponin I, cardiac muscle (Homo sapiens) + Troponin T, cardiac muscle (Homo sapiens) + Troponin C, slow skeletal and cardiac muscles (Homo sapiens) (UniProt P19429+P45379+P63316)
assay-summary: cardiac RTF calcium sensitivity activators, confirmation, biochemical, IANBD-TnC fluorescence, triplicate (AID 504383)
stated-conditions: IANBD-labeled cardiac RTF, Ca2+ sensitivity fluorescence; at 7.2 µM; scaled from EC20 to saturating calcium; tested at EC20 calcium, 0.472 mM
Out of some 2,500 compounds screened, about 1,200 (48%) were called active.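 Rule for the calls: active = mean activation above the low control average plus 3 SD, as set in the primary screen (cut at about 12% in these data); inactive = the rest.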 The set was probably picked from earlier hits. This is one part of the list.
Give one outcome, nothing more. List: YES (active), NO (inactive)

Completed entries (count: 3):
CCN(c1ccccc1)S(=O)(=O)c1ccc(OC)c(NC(=O)Cn2cnc3c2c(=O)n(C)c(=O)n3C)c1 | YES
COc1cccc(CNC(=O)CCC(=O)N2CC(C)Oc3ccccc32)c1OC (centres undefined) | NO
Cc1cccc(/C=C2/SC(=O)N(Cc3ccccc3)C2=O)n1 | YES

Kindly provide the recorded test outcome for the following molecule: `Cc1ccc(S(=O)(=O)NCCCCCC(=O)Nc2ccccc2C)cc1`
YES

Lab log entry: Cc1ccc(C2C3CN(C(C)C)CC=C3C(C#N)=C(N)C2(C#N)C#N)cc1 (centres undefined) — outcome as called in the assay?
NO

For `COc1ccc(CN(Cc2cccn2C)S(=O)(=O)c2ccccc2)cc1` , which call appears in the assay record?
NO

State the result this test recorded for `CCCOc1cc(N(CC)CC)ccc1/C=C(/C#N)c1nc2ccc(C)cc2[nH]1` .
YES

What call does the record list for `CC1=C/C(=C\C=C(C#N)C#N)N(C)c2ccccc21` ?
NO

Dear colleague, could you share the recorded outcome for Cc1ccc(C2C(C(=O)c3cccs3)=C(O)C(=O)N2c2nnc(C)s2)cc1 (centres undefined) when you have a moment?
YES

Dear all, I need the recorded test outcome for `COc1ccc(CN2CCC(C(=O)N3CCN(c4ccccc4F)CC3)CC2)cc1OC` , thank you.
NO

What call does the record list for C=CCOc1ccc(C2C(C(=O)c3cccs3)=C(O)C(=O)N2c2nnc(C)s2)cc1 (centres undefined) ?
YES

# fetch the recorded call for `CCCCCCN1C=CC(=C/C=C(\C#N)C(=O)OCC)C=C1` here
YES

# outcome recorded in this test, key = `CCN(CC)c1ccc(-c2sc(Nc3ccccc3)n[n+]2-c2ccc(F)cc2)cc1`
YES

Test call for this molecule, please: `CN1CCCN(Cc2cccc3ccccc23)CC1`
NO

Assay result, entry `CC(=O)c1cccc(NC(=O)Cn2nc(-c3ccccc3Cl)ccc2=O)c1` — outcome?
NO
